Target: PRMT1 (Homo sapiens, UniProt Q99873)
Sequence (Q99873 2-371): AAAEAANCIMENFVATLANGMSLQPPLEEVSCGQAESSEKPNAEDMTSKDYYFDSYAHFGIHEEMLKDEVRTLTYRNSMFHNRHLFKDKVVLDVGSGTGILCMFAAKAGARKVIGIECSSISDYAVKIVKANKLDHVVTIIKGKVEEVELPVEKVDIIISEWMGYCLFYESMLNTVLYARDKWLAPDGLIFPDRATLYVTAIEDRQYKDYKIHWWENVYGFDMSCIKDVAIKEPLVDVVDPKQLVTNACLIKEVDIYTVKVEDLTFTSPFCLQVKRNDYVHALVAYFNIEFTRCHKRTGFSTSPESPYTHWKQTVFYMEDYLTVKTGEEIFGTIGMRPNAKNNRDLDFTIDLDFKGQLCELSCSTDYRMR
Assay: Radioisotope-based filter-binding (HotSpot) assay, PRMT1
Settings: read-out: IC50 (μM) PRMT1; radioisotope-based filter assay; 5 μM histone H4; 1 μM 3H-SAM
A collection of compounds and their measured IC50
Respond numerically; units are µM and should not be typed.

Consider the worked cases shown below.
compound | assayed-target | IC50 [µM]
COC(=O)c1cc(O)c2cc(NC(=O)NCCCCNC(=N)NCCC[C@H]3O[C@@H](n4cnc5c(N)ncnc54)[C@H](O)[C@@H]3O)ccc2c1 [12g] | PRMT1 (Homo sapiens, UniProt Q99873) | 1.8
COC(=O)c1cc(O)c2cc(NC(=O)NCCCCCNC(=N)NC[C@H]3O[C@@H](n4cnc5c(N)ncnc54)[C@H](O)[C@@H]3O)ccc2c1 [12c] | PRMT1 (Homo sapiens, UniProt Q99873) | 8.46
COC(=O)c1cc(O)c2cc(NC(=O)NCCCCNC(=N)NCC[C@H]3O[C@@H](n4cnc5c(N)ncnc54)[C@H](O)[C@@H]3O)ccc2c1 [12f] | PRMT1 (Homo sapiens, UniProt Q99873) | 4.86

Q. Sample COC(=O)c1cc(O)c2cc(NC(=O)NCCCCCCCNC(=N)NC[C@H]3O[C@@H](n4cnc5c(N)ncnc54)[C@H](O)[C@@H]3O)ccc2c1 [12e] — what was its IC50?
A. 2.6

----------
Target: PRMT4 (Homo sapiens, UniProt Q86X55)
Sequence (Q86X55 2-608): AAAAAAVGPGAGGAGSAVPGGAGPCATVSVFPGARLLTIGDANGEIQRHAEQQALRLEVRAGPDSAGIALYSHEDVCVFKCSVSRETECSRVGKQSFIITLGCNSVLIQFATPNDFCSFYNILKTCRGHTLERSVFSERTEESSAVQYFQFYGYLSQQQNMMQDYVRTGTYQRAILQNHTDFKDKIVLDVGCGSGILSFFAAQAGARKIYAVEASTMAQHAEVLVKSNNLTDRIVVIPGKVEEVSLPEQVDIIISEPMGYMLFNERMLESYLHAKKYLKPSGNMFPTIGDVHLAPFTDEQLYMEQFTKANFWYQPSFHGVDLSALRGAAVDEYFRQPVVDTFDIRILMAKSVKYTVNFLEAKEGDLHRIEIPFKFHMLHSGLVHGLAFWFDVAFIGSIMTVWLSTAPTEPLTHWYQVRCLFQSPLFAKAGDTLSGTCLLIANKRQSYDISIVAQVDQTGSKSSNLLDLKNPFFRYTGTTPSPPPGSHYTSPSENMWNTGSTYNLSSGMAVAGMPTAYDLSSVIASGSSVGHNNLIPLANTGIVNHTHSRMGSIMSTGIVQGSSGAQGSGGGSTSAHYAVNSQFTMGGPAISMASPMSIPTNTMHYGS
Test: Radioisotope-based filter-binding (HotSpot) assay, PRMT4
Details: IC50 (μM) PRMT4, radioisotope-based filter assay; 5 μM histone H3; 1 μM 3H-SAM
observed-property: IC50 (µM)
Respond numerically; units are µM and should not be typed.

Q. Report IC50 for COC(=O)c1cc(O)c2cc(NC(=O)NCCCCCCNC(=N)NC[C@H]3O[C@@H](n4cnc5c(N)ncnc54)[C@H](O)[C@@H]3O)ccc2c1 [12d] tested on PRMT4 (Homo sapiens, UniProt Q86X55).
A. 0.068

----------
Molecular target: PRMT7 (Homo sapiens)
Sequence (Q9NVM4 2-692): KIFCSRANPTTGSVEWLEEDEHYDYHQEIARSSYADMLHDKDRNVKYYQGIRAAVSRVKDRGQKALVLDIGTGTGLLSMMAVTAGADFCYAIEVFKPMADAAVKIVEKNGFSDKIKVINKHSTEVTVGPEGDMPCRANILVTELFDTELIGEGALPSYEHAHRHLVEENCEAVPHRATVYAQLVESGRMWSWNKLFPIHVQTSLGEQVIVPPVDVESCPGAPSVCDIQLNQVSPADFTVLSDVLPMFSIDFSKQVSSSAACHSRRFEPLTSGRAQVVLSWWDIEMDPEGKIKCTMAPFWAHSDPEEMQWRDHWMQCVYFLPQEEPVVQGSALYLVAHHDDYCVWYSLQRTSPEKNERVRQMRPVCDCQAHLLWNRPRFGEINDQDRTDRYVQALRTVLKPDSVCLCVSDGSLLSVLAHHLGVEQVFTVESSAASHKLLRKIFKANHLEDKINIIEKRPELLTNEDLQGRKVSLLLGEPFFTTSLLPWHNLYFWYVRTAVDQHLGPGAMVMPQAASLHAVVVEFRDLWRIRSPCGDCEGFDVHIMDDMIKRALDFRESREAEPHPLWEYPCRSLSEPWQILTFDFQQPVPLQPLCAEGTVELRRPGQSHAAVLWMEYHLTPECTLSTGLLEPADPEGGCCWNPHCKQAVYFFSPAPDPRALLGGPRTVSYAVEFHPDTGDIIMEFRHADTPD
Assay: Radioisotope-based filter-binding (HotSpot) assay, PRMT7
Details: IC50 (μM) PRMT7, radioisotope-based filter assay; 5 μM GST-GAR; 1 μM 3H-SAM
A collection of compounds and their measured IC50
Respond numerically; units are µM and should not be typed.

compound | assayed-target | reported-value
COC(=O)c1cc(O)c2cc(NC(=O)NCCCNC(=N)NC[C@H]3O[C@@H](n4cnc5c(N)ncnc54)[C@H](O)[C@@H]3O)ccc2c1 [12a] | PRMT7 (Homo sapiens) | 0.3

Q. Report IC50 for COC(=O)c1cc(O)c2cc(NC(=O)NCCCCCCNC(=N)NC[C@H]3O[C@@H](n4cnc5c(N)ncnc54)[C@H](O)[C@@H]3O)ccc2c1 [12d] tested on PRMT7 (Homo sapiens).
A. 0.41

----------
A collection of compounds and their measured IC50
Biological target: PRMT1 (Homo sapiens)
Test: Radioisotope-based filter-binding (HotSpot) assay, PRMT1
Settings: read-out: IC50 PRMT1 (Figure 5 heatmap); radioisotope-based filter assay
Numeric answer plus unit only.

Consider the worked cases shown below.
compound | reported-value
COC(=O)c1cc(O)c2cc(NC(=O)NCCCCCCCNC(=N)NC[C@H]3O[C@@H](n4cnc5c(N)ncnc54)[C@H](O)[C@@H]3O)ccc2c1 [12e] | 2.6 µM
COC(=O)c1cc(O)c2cc(NC(=O)NCCCCNC(=N)NCC[C@H]3O[C@@H](n4cnc5c(N)ncnc54)[C@H](O)[C@@H]3O)ccc2c1 [12f] | 4.86 µM

Q. Sample COC(=O)c1cc(O)c2cc(NC(=O)NCCCCNC(=N)NCCC[C@H]3O[C@@H](n4cnc5c(N)ncnc54)[C@H](O)[C@@H]3O)ccc2c1 [12g] — what was its IC50?
A. 1.79 µM

----------
A collection of compounds and their measured pIC50
Molecular target: UniProt O60678
Sequence (O60678 2-531): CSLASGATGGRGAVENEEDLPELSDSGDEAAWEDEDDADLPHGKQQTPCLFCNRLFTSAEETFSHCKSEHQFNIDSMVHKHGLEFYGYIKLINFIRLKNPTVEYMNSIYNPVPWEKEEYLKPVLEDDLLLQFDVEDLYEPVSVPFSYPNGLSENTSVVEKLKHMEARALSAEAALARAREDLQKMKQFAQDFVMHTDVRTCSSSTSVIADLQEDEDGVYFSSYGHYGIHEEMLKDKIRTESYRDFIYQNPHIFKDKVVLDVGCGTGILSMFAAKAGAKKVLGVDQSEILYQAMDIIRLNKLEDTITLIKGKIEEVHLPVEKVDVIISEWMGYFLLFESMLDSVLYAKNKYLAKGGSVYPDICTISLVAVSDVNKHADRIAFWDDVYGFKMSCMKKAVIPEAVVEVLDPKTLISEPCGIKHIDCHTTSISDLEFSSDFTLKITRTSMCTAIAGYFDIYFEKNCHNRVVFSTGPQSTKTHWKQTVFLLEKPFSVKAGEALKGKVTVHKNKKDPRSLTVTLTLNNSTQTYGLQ
Test: Radioisotope-based filter-binding (HotSpot) assay, PRMT3
Conditions: read-out: IC50 PRMT3 (Figure 5 heatmap); radioisotope-based filter assay
To interpret pIC50, take it as minus log10 of a concentration measured in moles per litre.

compound | pIC50
COC(=O)c1cc(O)c2cc(NC(=O)NCCCCNC(=N)NCC[C@H]3O[C@@H](n4cnc5c(N)ncnc54)[C@H](O)[C@@H]3O)ccc2c1 [12f] | 4.98
COC(=O)c1cc(O)c2cc(NC(=O)NCCCCCCCNC(=N)NC[C@H]3O[C@@H](n4cnc5c(N)ncnc54)[C@H](O)[C@@H]3O)ccc2c1 [12e] | 4.91
COC(=O)c1cc(O)c2cc(NC(=O)NCCCCNC(=N)NCCC[C@H]3O[C@@H](n4cnc5c(N)ncnc54)[C@H](O)[C@@H]3O)ccc2c1 [12g] | 4.88

Now, please, on to the next compound.
Q. Sample COC(=O)c1cc(O)c2cc(NC(=O)NCCCCNC(=N)NC/C=C/[C@H]3O[C@@H](n4cnc5c(N)ncnc54)[C@H](O)[C@@H]3O)ccc2c1 [12h] — what was its pIC50?
A. 5.39

----------
Target: PRMT4 (Homo sapiens)
Sequence (Q86X55 2-608): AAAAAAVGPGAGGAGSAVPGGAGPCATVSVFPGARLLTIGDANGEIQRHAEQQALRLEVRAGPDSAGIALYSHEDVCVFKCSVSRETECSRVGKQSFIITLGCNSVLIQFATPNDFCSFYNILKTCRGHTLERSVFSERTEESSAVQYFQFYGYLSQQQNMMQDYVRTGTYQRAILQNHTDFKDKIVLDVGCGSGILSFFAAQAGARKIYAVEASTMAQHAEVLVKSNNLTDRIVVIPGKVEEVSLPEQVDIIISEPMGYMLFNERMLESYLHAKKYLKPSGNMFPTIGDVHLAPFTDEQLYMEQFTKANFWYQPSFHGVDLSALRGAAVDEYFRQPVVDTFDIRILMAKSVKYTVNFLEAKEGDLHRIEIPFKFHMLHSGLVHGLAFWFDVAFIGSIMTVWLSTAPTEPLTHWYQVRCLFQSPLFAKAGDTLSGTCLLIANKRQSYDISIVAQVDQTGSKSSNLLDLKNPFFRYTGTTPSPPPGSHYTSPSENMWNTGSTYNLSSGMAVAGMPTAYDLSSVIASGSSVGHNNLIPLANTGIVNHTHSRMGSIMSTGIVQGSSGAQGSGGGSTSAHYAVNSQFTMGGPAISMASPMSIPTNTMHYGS
Assay: Radioisotope-based filter-binding (HotSpot) assay, PRMT4
Conditions: selectivity index for PRMT4 over PRMT3
observed-property: SI PRMT3 (Figure 5 heatmap) (fold)
Respond numerically; units are fold and should not be typed.

molecule | assayed-target | SI PRMT3 (Figure 5 heatmap), fold
COC(=O)c1cc(O)c2cc(NC(=O)NCCCCCCCNC(=N)NC[C@H]3O[C@@H](n4cnc5c(N)ncnc54)[C@H](O)[C@@H]3O)ccc2c1 [12e] | PRMT4 (Homo sapiens) | 70

Now, please, on to the next molecule.
Q. Sample COC(=O)c1cc(O)c2cc(NC(=O)NCCCCCNC(=N)NC[C@H]3O[C@@H](n4cnc5c(N)ncnc54)[C@H](O)[C@@H]3O)ccc2c1 [12c] — what was its SI PRMT3 (Figure 5 heatmap)?
A. 51
